Ref: patent US5292737A

- TARGET ENTITY: PKC isoenzyme γ (Homo sapiens)
- Construct: made in house; host or cells: baculovirus-insect cell expression system
- PROTOCOL: Protein kinase C inhibition assay, PKC isoenzyme γ
- Assay type: biochemical
- STATED CONDITIONS: read-out: IC50 PKC γ
Please go through the items and note down their IC50.
Answers are plain numbers, in µM.

# map each molecule to its IC50
1. COc1cc(NS(=O)(=O)c2ccc(N=C3C=C(Nc4ccc(S(=O)(=O)Nc5cc(OC)nc(OC)n5)cc4)C(=O)c4ccccc43)cc2)nc(OC)n1 [Compound 3g]
2. COc1ccc(NS(=O)(=O)c2ccc(N=C3C=C(Nc4ccc(S(=O)(=O)Nc5ccc(OC)nn5)cc4)C(=O)c4ccccc43)cc2)nn1 [Compound 6j]
3. O=C1C(Nc2ccc(S(=O)(=O)Nc3ccc(Cl)nn3)cc2)=CC(=Nc2ccc(S(=O)(=O)Nc3ccc(Cl)nn3)cc2)c2ccccc21 [Compound 3l]
4. CCCCCCCCCCCCCCCCNS(=O)(=O)c1ccc(N=C2C=C(Nc3ccc(S(=O)(=O)NCCCCCCCCCCCCCCCC)cc3)C(=O)c3ccccc32)cc1 [Compound 3o]

1: 14; 2: 30; 3: 7; 4: 118

* * *

- TARGET ENTITY: PKC isoenzyme α (Homo sapiens, UniProt P17252)
- Construct: made in house; host or cells: baculovirus-insect cell expression system
- PROTOCOL: Protein kinase C inhibition assay, PKC isoenzyme α
- Format: biochemical
- STATED CONDITIONS: read-out: IC50 PKC α
ATTRIBUTE MEASURED: IC50
Units required after the number.

# map each compound to its IC50
1. Cc1cc(NS(=O)(=O)c2ccc(N=C3C=C(Nc4ccc(S(=O)(=O)Nc5cc(C)nc(C)n5)cc4)C(=O)c4ccccc43)cc2)nc(C)n1 [Compound 6d]
2. Cc1nnc(NS(=O)(=O)c2ccc(N=C3C=C(Nc4ccc(S(=O)(=O)Nc5nnc(C)s5)cc4)C(=O)c4ccccc43)cc2)s1 [Compound 3e]
3. COc1cc(NS(=O)(=O)c2ccc(N=C3C=C(Nc4ccc(S(=O)(=O)Nc5cc(OC)cc(OC)c5)cc4)C(=O)c4ccccc43)cc2)cc(OC)c1 [Compound 6af]
4. O=C1C(Nc2ccc(S(=O)(=O)Nc3cnc4ccccc4n3)cc2)=CC(=Nc2ccc(S(=O)(=O)Nc3cnc4ccccc4n3)cc2)c2ccccc21 [Compound 6m]
5. O=C1C(Nc2ccc(S(=O)(=O)Nc3ccccn3)cc2)=CC(=Nc2ccc(S(=O)(=O)Nc3ccccn3)cc2)c2ccccc21 [Compound 3i]
6. COc1cnc(NS(=O)(=O)c2ccc(N=C3C=C(Nc4ccc(S(=O)(=O)Nc5ncc(OC)cn5)cc4)C(=O)c4ccccc43)cc2)nc1 [Compound 3h]

1: 41 µM; 2: 17 µM; 3: 113 µM; 4: 9 µM; 5: 23 µM; 6: 105 µM

* * *

- Tested on: human neutrophils
- PROTOCOL: Neutrophil Superoxide Anion (O2) Release Assay, PMA-stimulated
- Assay type: cell-based
- STATED CONDITIONS: Homo sapiens, Neutrophil, read-out: Neutrophil Superoxide Release IC50
ATTRIBUTE MEASURED: IC50
Units required after the number.

What value of IC50 has been recorded for this entry: CCCCCCCCCCCCC/C=C/[C@@H](O)[C@@H](N)CO [D--sphingosine, D-sphingosine, reference compound]
2.85 µM

* * *

- TARGET ENTITY: PKC isoenzyme βII (Homo sapiens, UniProt P05771)
- Construct: made in house; host or cells: baculovirus-insect cell expression system
- Sequence (P05771 1-673 isoform P05771-2): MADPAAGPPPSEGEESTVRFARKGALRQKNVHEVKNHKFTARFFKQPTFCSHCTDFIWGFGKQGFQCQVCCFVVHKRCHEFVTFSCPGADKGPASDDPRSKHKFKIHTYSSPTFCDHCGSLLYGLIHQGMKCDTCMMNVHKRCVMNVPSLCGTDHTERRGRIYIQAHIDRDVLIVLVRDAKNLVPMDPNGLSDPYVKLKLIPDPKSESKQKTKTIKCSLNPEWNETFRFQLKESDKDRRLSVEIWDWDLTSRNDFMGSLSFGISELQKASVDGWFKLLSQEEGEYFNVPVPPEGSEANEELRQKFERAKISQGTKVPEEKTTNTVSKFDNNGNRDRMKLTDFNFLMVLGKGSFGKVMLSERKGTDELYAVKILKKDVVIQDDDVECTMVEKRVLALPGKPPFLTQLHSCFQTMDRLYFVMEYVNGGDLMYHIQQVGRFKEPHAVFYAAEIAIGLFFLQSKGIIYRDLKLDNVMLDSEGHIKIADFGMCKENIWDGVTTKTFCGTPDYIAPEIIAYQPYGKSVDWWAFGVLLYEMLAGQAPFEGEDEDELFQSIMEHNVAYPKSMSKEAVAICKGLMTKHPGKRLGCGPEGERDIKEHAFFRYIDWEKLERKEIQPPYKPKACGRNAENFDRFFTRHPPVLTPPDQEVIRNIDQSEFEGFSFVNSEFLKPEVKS
- PROTOCOL: Protein kinase C inhibition assay, PKC isoenzyme βII
- Type: biochemical
- STATED CONDITIONS: read-out: IC50 PKC βII
ATTRIBUTE MEASURED: pIC50
Numbers only, as −log10 of the molar value.

Examples with their reported pIC50 follow.
Cc1ccnc(NS(=O)(=O)c2ccc(N=C3C=C(Nc4ccc(S(=O)(=O)Nc5nccc(C)n5)cc4)C(=O)c4ccccc43)cc2)n1 : 4.64
Cc1cc(C)nc(NC(=O)c2ccc(N=C3C=C(Nc4ccc(C(=O)Nc5cc(C)cc(C)n5)cc4)C(=O)c4ccccc43)cc2)c1 : 3.84
COc1cc(NS(=O)(=O)c2ccc(N=C3C=C(Nc4ccc(S(=O)(=O)Nc5cc(OC)nc(OC)n5)cc4)C(=O)c4ccccc43)cc2)nc(OC)n1 [Compound 6g] : 4.48
COc1cnc(NS(=O)(=O)c2ccc(N=C3C=C(Nc4ccc(S(=O)(=O)Nc5ncc(OC)cn5)cc4)C(=O)c4ccccc43)cc2)nc1 [Compound 3h] : 4.28

# map each compound to its pIC50
1. CCCCCCCCCCCCCCCCNS(=O)(=O)c1ccc(N=C2C=C(Nc3ccc(S(=O)(=O)NCCCCCCCCCCCCCCCC)cc3)C(=O)c3ccccc32)cc1 [Compound 3o]
2. COc1cc(NS(=O)(=O)c2ccc(N=C3C=C(Nc4ccc(S(=O)(=O)Nc5cc(OC)cc(OC)c5)cc4)C(=O)c4ccccc43)cc2)cc(OC)c1 [Compound 3af]
3. Cc1cc(NS(=O)(=O)c2ccc(N=C3C=C(Nc4ccc(S(=O)(=O)Nc5cc(C)nc(C)n5)cc4)C(=O)c4ccccc43)cc2)nc(C)n1 [Compound 3d]
4. O=C1C(Nc2ccc(S(=O)(=O)Nc3ccccn3)cc2)=CC(=Nc2ccc(S(=O)(=O)Nc3ccccn3)cc2)c2ccccc21 [Compound 6i]

1. 3.86
2. 3.84
3. 4.51
4. 4.33

* * *

- TARGET ENTITY: PKC isoenzyme ε (Homo sapiens, UniProt Q02156)
- Construct: made in house; host or cells: baculovirus-insect cell expression system
- Sequence (Q02156 1-737): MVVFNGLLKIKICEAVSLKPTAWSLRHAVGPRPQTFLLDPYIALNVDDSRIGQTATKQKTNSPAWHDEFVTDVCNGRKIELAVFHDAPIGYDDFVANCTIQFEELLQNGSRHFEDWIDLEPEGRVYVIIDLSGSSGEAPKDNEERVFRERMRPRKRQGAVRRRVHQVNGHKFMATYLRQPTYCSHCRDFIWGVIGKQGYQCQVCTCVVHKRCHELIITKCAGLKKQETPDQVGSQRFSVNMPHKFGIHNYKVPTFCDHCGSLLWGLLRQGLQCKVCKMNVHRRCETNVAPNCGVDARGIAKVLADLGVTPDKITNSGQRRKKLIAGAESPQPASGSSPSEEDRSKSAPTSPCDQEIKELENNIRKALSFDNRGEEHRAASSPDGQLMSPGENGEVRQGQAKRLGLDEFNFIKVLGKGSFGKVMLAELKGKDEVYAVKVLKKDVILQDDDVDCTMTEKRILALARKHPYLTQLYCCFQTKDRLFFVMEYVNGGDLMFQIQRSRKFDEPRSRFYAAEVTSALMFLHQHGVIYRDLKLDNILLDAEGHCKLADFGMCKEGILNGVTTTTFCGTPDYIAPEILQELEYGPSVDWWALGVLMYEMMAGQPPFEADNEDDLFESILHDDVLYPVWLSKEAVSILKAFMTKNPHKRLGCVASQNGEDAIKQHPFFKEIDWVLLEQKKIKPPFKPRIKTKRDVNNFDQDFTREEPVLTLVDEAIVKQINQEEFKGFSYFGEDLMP
- PROTOCOL: Protein kinase C inhibition assay, PKC isoenzyme ε
- Assay type: biochemical
- STATED CONDITIONS: read-out: IC50 PKC ε
Please go through the items and note down their IC50.
Give bare numbers, in µM.

COc1cc(NS(=O)(=O)c2ccc(N=C3C=C(Nc4ccc(S(=O)(=O)Nc5cc(OC)cc(OC)c5)cc4)C(=O)c4ccccc43)cc2)cc(OC)c1 [Compound 3af] : 111

# map each compound to its IC50
1. Cc1cc(C)nc(NS(=O)(=O)c2cc(N=C3C=C(Nc4ccc(C)c(S(=O)(=O)Nc5cc(C)cc(C)n5)c4)C(=O)c4ccccc43)ccc2C)c1 [Compound 3ag]
2. O=C1C(Nc2ccc(S(=O)(=O)Nc3cnc4ccccc4n3)cc2)=CC(=Nc2ccc(S(=O)(=O)Nc3cnc4ccccc4n3)cc2)c2ccccc21 [Compound 6m]
3. Cc1noc(NS(=O)(=O)c2ccc(N=C3C=C(Nc4ccc(S(=O)(=O)Nc5onc(C)c5C)cc4)C(=O)c4ccccc43)cc2)c1C [Compound 3b]

1: 8; 2: 141; 3: 143

* * *

Please go through the items and note down their IC50.
- TARGET ENTITY: PKC isoenzyme γ (Homo sapiens)
- Construct: made in house; host or cells: baculovirus-insect cell expression system
- PROTOCOL: Protein kinase C inhibition assay, PKC isoenzyme γ
- Assay type: biochemical
- STATED CONDITIONS: read-out: IC50 PKC γ
Give bare numbers, in µM.

Examples with their reported IC50 follow.
Cc1nnc(NS(=O)(=O)c2ccc(N=C3C=C(Nc4ccc(S(=O)(=O)Nc5nnc(C)s5)cc4)C(=O)c4ccccc43)cc2)s1 [Compound 6e] : 12
O=C1C(Nc2ccc(S(=O)(=O)Nc3ccc(Cl)nn3)cc2)=CC(=Nc2ccc(S(=O)(=O)Nc3ccc(Cl)nn3)cc2)c2ccccc21 [Compound 6l] : 9
O=C1C(Nc2ccc(S(=O)(=O)Nc3ccccn3)cc2)=CC(=Nc2ccc(S(=O)(=O)Nc3ccccn3)cc2)c2ccccc21 [Compound 3i] : 15

# map each compound to its IC50
1. COc1cc(NS(=O)(=O)c2ccc(N=C3C=C(Nc4ccc(S(=O)(=O)Nc5cc(OC)cc(OC)c5)cc4)C(=O)c4ccccc43)cc2)cc(OC)c1 [Compound 3af]
2. Cc1cc(C)nc(NS(=O)(=O)c2ccc(N=C3C=C(Nc4ccc(S(=O)(=O)Nc5nc(C)cc(C)n5)cc4)C(=O)c4ccccc43)cc2)n1 [Compound 6c]

1: 40; 2: 7

What value of IC50 has been recorded for this entry: `Cc1cc(C)nc(NS(=O)(=O)c2cccc(N=C3C=C(Nc4cccc(S(=O)(=O)Nc5cc(C)cc(C)n5)c4)C(=O)c4ccccc43)c2)c1`
16
